All figures here come from ChEMBL document CHEMBL1157362.

# method-summary: Drug level in rhesus monkey cerebrospinal fluid at 33.3 mg/kg, iv after 1 hr
# Format: ADME, organism-based, Macaca mulatta
# Design: dose 33.3 mg/kg, route intravenous
# particulars: read-out: Drug uptake
observed-property: concentration at 1 h (µM)
Respond numerically; units are µM and should not be typed.

Any idea what its concentration at 1 h is? The molecule is `Cc1cn([C@H]2CO[C@@H](CO)O2)c(=O)[nH]c1=O`
7.8

----------
# method-summary: Systemic clearance in rhesus monkey at 33.3 mg/kg, iv
# Assay type: ADME, organism-based, Macaca mulatta
# Set-up: dose 33.3 mg/kg, route intravenous
# particulars: in vivo
observed-property: clearance

Any idea what its clearance is? The compound is `Cc1cn([C@H]2CO[C@@H](CO)O2)c(=O)[nH]c1=O`
6 mL/min/kg

----------
# method-summary: Volume of distribution at steady state in rhesus monkey
# Assay type: ADME, organism-based, Macaca mulatta
# particulars: in vivo, read-out: Vdss
observed-property: Vd (L/kg)
Respond numerically; units are L/kg and should not be typed.

Any idea what its Vd is? The compound is `Nc1nc(=O)n([C@H]2CO[C@@H](CO)O2)cc1F`
0.53

----------
# method-summary: Renal clearance in rhesus monkey at 33.3 mg/kg, iv
# Assay type: ADME, organism-based, Macaca mulatta, Kidney
# Parameters: dose 33.3 mg/kg, route intravenous
# particulars: in vivo, read-out: CL_renal (converted)
observed-property: CL renal (mL/min/kg)
Respond numerically; units are mL/min/kg and should not be typed.

Any idea what its CL renal is? The compound is `Cc1cn([C@H]2CO[C@@H](CO)O2)c(=O)[nH]c1=O`
3

----------
# method-summary: Oral bioavailability in human
# Assay type: ADME, organism-based
# particulars: in vivo
observed-property: bioavailability (%)
Respond numerically; units are % and should not be typed.

Any idea what its bioavailability is? The compound is `Cc1cn([C@H]2C=C[C@@H](CO)O2)c(=O)[nH]c1=O`
100

----------
# method-summary: AUC in rhesus monkey at 33.3 mg/kg, iv
# Type: ADME, organism-based, Macaca mulatta
# Set-up: dose 33.3 mg/kg, route intravenous
# particulars: plasma
observed-property: AUC (µM·h)
Respond numerically; units are µM·h and should not be typed.

Any idea what its AUC is? The molecule is `Cc1cn([C@H]2CO[C@@H](CO)O2)c(=O)[nH]c1=O`
416

----------
# method-summary: Drug level in rhesus monkey cerebrospinal fluid at 33.3 mg/kg, po after 1 hr
# Assay type: ADME, organism-based, Macaca mulatta
# Set-up: dose 33.3 mg/kg, route oral
# particulars: read-out: Drug uptake
observed-property: concentration at 1 h

Any idea what its concentration at 1 h is? The compound is `Cc1cn([C@H]2CO[C@@H](CO)O2)c(=O)[nH]c1=O`
3.2 µM

----------
For each record, write down the corresponding bioavailability.
# method-summary: Oral bioavailability in rhesus monkey
# Type: ADME, organism-based, Macaca mulatta
# particulars: in vivo
Respond numerically; units are % and should not be typed.

Any idea what its bioavailability is? The compound is Nc1nc(N)c2ncn([C@H]3CO[C@@H](CO)O3)c2n1 [AMDOXOVIR]
30

Any idea what its bioavailability is? The compound is `Nc1nc(=O)n([C@H]2CO[C@@H](CO)O2)cc1F`
38
